- Test system: SF-268 CNS
- assay_remarks: NCI tumour cell line growth inhibition, 48 h
measurement_type: TGI

// query Any idea what its TGI is? The compound is CC(Oc1ccc2c(-c3ccccc3)cc(=O)oc2c1)C(=O)O (stereo not given)
// result > 100 µM

// query Any idea what its TGI is? The compound is COc1cccc(/C(C#N)=C/c2nc3c(N4CCOCC4)nc(Cl)nc3n2C)c1
// result 3.17 µM

// query Any idea what its TGI is? The compound is CC[n+]1oc(C(=O)c2ccc(Cl)cc2)c(-c2ccccc2)c1-c1ccccc1.[Cl][Fe]([Cl])([Cl])[Cl]
// result > 100 µM

// query Any idea what its TGI is? The compound is COC(=O)/C=C(C)/C=C/C1OC(C)OCC1O (stereo not given)
// result > 100 µM

Continuing:
// query Any idea what its TGI is? The compound is COc1cc(F)c(F)c(Nc2ccc(I)cc2F)c1NS(=O)(=O)C1(C[C@H](O)CO)CC1
// result > 10 µM
